assay: in vivo; details: C3HeB/FeJ, mouse, po, 150 mg/kg, AUCUL/AUCplasma
property-label: Kp
Lab note: write the figure by itself, no unit.

Lab book: Kp of NC(=O)c1cnccn1 [PZA, pyrazinamide] noted as 0.72

====

experiment: in vivo; details: BALB/c, mouse, po, 25 mg/kg, AUCUL/AUCplasma, uninvolved lung, single 25 mg/kg oral dose of BDQ
property-label: Kp
Lab note: write the figure by itself, no unit.

Lab book: Kp of COc1nc2ccc(Br)cc2cc1[C@@H](c1ccccc1)[C@@](O)(CCN(C)C)c1cccc2ccccc12 noted as 28.4

====

Assign Cmax to each entry below.
test: in vivo; conditions: C3HeB/FeJ, mouse, po, 150 mg/kg, Cmax, whole lung, single 150 mg/kg oral dose of PZA
Answer with a number only, understood to be in ng/g.

Lab book: Cmax of NC(=O)c1cnccn1 [PZA, pyrazinamide] noted as 76500

Lab book: Cmax of O=C(O)c1cnccn1 [POA, pyrazinoic acid] noted as 9000

====

test: in vivo; conditions: BALB/c, mouse, po, 25 mg/kg, Cmax, uninvolved lung, single 25 mg/kg oral dose of BDQ
property-label: Cmax (ng/g)
Answer with a number only, understood to be in ng/g.

Lab book: Cmax of COc1nc2ccc(Br)cc2cc1[C@@H](c1ccccc1)[C@@](O)(CCN(C)C)c1cccc2ccccc12 noted as 36000

====

assay: in vivo; conditions: BALB/c, mouse, po, 150 mg/kg, tmax, uninvolved lung, single 150 mg/kg oral dose of PZA
property-label: Tmax (min)
Answer with a number only, understood to be in min.

Lab book: Tmax of NC(=O)c1cnccn1 [PZA, pyrazinamide] noted as 30

Lab book: Tmax of O=C(O)c1cnccn1 [POA, pyrazinoic acid] noted as 30

====

assay: in vivo; settings: C3HeB/FeJ, mouse, po, 25 mg/kg, t1/2, C3HeB/FeJ, lesion (type I), single 25 mg/kg oral dose of BDQ
property-label: half-life
Answer with the figure and its unit, nothing else.

Lab book: half-life of COc1nc2ccc(Br)cc2cc1[C@@H](c1ccccc1)[C@@](O)(CCN(C)C)c1cccc2ccccc12 noted as 104 h

====

Assign Tmax to each entry below.
experiment: in vivo; details: C3HeB/FeJ, mouse, po, 150 mg/kg, tmax, lesion (type I), single 150 mg/kg oral dose of PZA
Answer with a number only, understood to be in h.

Lab book: Tmax of O=C(O)c1cnccn1 [POA, pyrazinoic acid] noted as 1

Lab book: Tmax of NC(=O)c1cnccn1 [PZA, pyrazinamide] noted as 1

====

Assign Tmax to each entry below.
experiment: in vivo; settings: C3HeB/FeJ, mouse, po, 150 mg/kg, tmax, whole lung, single 150 mg/kg oral dose of PZA
Answer with a number only, understood to be in h.

Lab book: Tmax of NC(=O)c1cnccn1 [PZA, pyrazinamide] noted as 1

Lab book: Tmax of O=C(O)c1cnccn1 noted as 1

====

assay: in vivo; settings: C3HeB/FeJ, mouse, po, 150 mg/kg, AUCLes/AUCplasma
property-label: Kp

Lab book: Kp of NC(=O)c1cnccn1 [PZA, pyrazinamide] noted as 1.07

====

assay: in vivo; conditions: BALB/c, mouse, po, 150 mg/kg, AUCLes/AUCplasma
property-label: Kp
Lab note: write the figure by itself, no unit.

Lab book: Kp of NC(=O)c1cnccn1 [PZA, pyrazinamide] noted as 1.33

====

Assign AUC(0-t) to each entry below.
assay: in vivo; conditions: BALB/c, mouse, po, 150 mg/kg
Answer with a number only, understood to be in µg·h/mL.

Lab book: AUC(0-t) of O=C(O)c1cnccn1 noted as 127

Lab book: AUC(0-t) of NC(=O)c1cnccn1 [PZA, pyrazinamide] noted as 346

====

Assign half-life to each entry below.
assay: in vivo; settings: BALB/c, mouse, po, 150 mg/kg, t1/2, BALB/c, plasma, single 150 mg/kg oral dose of PZA, 2.5–8 h terminal
Answer with a number only, understood to be in h.

Lab book: half-life of NC(=O)c1cnccn1 [PZA, pyrazinamide] noted as 1.05

Lab book: half-life of O=C(O)c1cnccn1 noted as 1.24

====

assay: in vivo; settings: C3HeB/FeJ, mouse, po, 150 mg/kg, Cmax, lesion (caseous necrotic granuloma, type I), single 150 mg/kg oral dose of PZA
Assign Cmax to each entry below.
Answer with a number only, understood to be in ng/g.

Lab book: Cmax of O=C(O)c1cnccn1 [POA, pyrazinoic acid] noted as 12500

Lab book: Cmax of NC(=O)c1cnccn1 [PZA, pyrazinamide] noted as 94700
